# Test system: SF/GF peptide
# PROCEDURE_DETAILS: Serum antibody ELISA to SF/GF peptide
# Type: in vivo, mouse
# CONDITION_DESCRIPTION: Balb/c mice, dose 25 μg
# Text: Next using another antigen with B and T cell activity two inbred strains of mice, (A/J and Balb/c) were immunized twice at three week intervals with the L.E.A.P.S.™ constructs (J-GF/SF or der-SF/GF) or with the subunits (SF/GF, J and derG) used to make heteroconjugated peptides, and were challenged with 100 Plasmodium yoelii sporozoites 2 weeks after the second immunization and protection efficacy evaluated as before. […]
Ends that are not written are not given here.
PROPERTY_LABEL: Antibody ELISA A490*

SUBSTANCE	Antibody ELISA A490*
DGQEEKAGVVSTGLIGGGSFPMNEESPLGFSPEEMEAVASKFR [derG-GF/SF]	17,019
DLLKNGERIEKVEGGG SFPMNEESPLGFSPEEMEAVASKFR [J-GF/SF]	11,454
DLLKNGERIEKVEGGG [J, short fragment from β2-microglobulin (a.a. 38-50)]	2

Now turn to the next substance.
query: Which measured Antibody ELISA A490* value corresponds to DGQEEKAGVVSTGLIGGGamide (DGQEEKAGVVSTGLIGGG-NH2) [derG, modified fragment from MHC II β-chain (a.a.135-149)] ?
result: 4

Hello, the source for this data is patent US20060134126A1, in case you need it.
